Test system: HT-29
Assay: Antiproliferative activity against human HT-29 cells assessed as inhibition of cell proliferation measured after 48 hrs by MTT assay
Format: functional, cell-based
Conditions: HT-29, 48 h
pIC50: −log10 of the molar value.
measured.metric: pIC50

structure.notation: COc1cc(-c2cc(-c3ccc(O)cc3O)nc(-c3ccccc3)n2)cc(OC)c1OC
pIC50: 5.30
//
structure.notation: COc1cc(-c2cc(-c3cccc4ccccc34)nc(-c3ccccc3)n2)cc(OC)c1OC
pIC50: 5.33

----------
Test system: MDA-MB-231
Test: Antiproliferative activity against human MDA-MB-231 cells assessed as inhibition of cell proliferation measured after 48 hrs by MTT assay
Format: functional, cell-based
Conditions: MDA-MB-231, 48 h
pIC50: −log10 of the molar value.
measured.metric: pIC50

Known results for compounds:
structure.notation: COc1cc(-c2cc(-c3ccc(N)cc3)nc(-c3ccccc3)n2)cc(OC)c1OC
pIC50: 6.00

structure.notation: COc1cc(-c2cc(-c3cccc(O)c3)nc(-c3ccccc3)n2)cc(OC)c1OC
pIC50: 5.70

structure.notation: COc1cc(-c2cc(-c3ccc(O)cc3)nc(-c3ccccc3)n2)cc(OC)c1OC
pIC50: 5.80

structure.notation: COc1cc2c(c(OC)c1OC)-c1ccc(OC)c(=O)cc1[C@@H](NC(C)=O)CC2
pIC50: 6.03

a = COc1cc(-c2cc(-c3ccc(O)cc3O)nc(-c3ccccc3)n2)cc(OC)c1OC
b = COc1cc(-c2cc(-c3cccc([N+](=O)[O-])c3)nc(-c3ccccc3)n2)cc(OC)c1OC
c = COc1ccc(-c2cc(-c3cc(OC)c(OC)c(OC)c3)nc(-c3ccccc3)n2)c(OC)c1
d = COc1cc(-c2cc(-c3cccs3)nc(-c3ccccc3)n2)cc(OC)c1OC
Q. Please produce an ascending ranking of these compounds based on pIC50. State the ranking by listing the labels in the requested order.
A. d, b, c, a

----------
System: MDA-MB-231
Experiment: Antiproliferative activity against human MDA-MB-231 cells assessed as inhibition of cell proliferation measured after 48 hrs by MTT assay
Assay type: functional, cell-based
Details: MDA-MB-231, 48 h
pIC50: −log10 of the molar value.
measured.metric: pIC50

structure.notation: COc1cc(-c2cc(-c3ccc(C)cc3)nc(-c3ccccc3)n2)cc(OC)c1OC
pIC50: 5.29
//
structure.notation: COc1cc(-c2cc(-c3cccc4ccccc34)nc(-c3ccccc3)n2)cc(OC)c1OC
pIC50: 5.49

A = COc1cc(-c2cc(-c3ccccc3)nc(-c3ccccc3)n2)cc(OC)c1OC
B = COc1ccc(-c2cc(-c3cc(OC)c(OC)c(OC)c3)nc(-c3ccccc3)n2)cc1
Q. From the items above, decide which of A and B has the lower pIC50 reading. # answer = label of selected item
A. A

----------
Test system: HCT-116
Experiment: Antiproliferative activity against human HCT-116 cells assessed as inhibition of cell proliferation measured after 48 hrs by MTT assay
Format: functional, cell-based
Conditions: HCT-116, 48 h
measured.metric: IC50 (µM)

Completed entries (count: 2):
structure.notation: COc1cc(-c2cc(-c3ccc(N)cc3)nc(-c3ccccc3)n2)cc(OC)c1OC
measured: 12.3

structure.notation: COc1cc(-c2cc(-c3ccc(Cl)cc3)nc(-c3ccccc3)n2)cc(OC)c1OC
measured: 7.98

A = COc1ccc(-c2cc(-c3cc(OC)c(OC)c(OC)c3)nc(-c3ccccc3)n2)cc1
B = COc1cc(-c2cc(-c3ccccc3)nc(-c3ccccc3)n2)cc(OC)c1OC
C = COc1cc(-c2cc(-c3ccc(C)cc3)nc(-c3ccccc3)n2)cc(OC)c1OC
Q. Arrange the 3 entries by IC50 so the values rise. Please list the labels in the order you were asked to rank them.
A. A, B, C
